Read-out: Apoptosis regulator Bcl-2 (Homo sapiens)
METHOD_DESCRIPTION: LTEA_HepaRG_BCL2: Life Technologies and Expression Analysis (LTEA) Assay for Bcl-2 gene using HepaRG (AID 2283475);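 also: BCL2 transcript by TaqMan qRT-PCR normalised to ACTB GAPDH and POLR2A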
STUDY_CONDITIONS: mRNA level, 48 h; actives raise or lower the signal
Activity calls are given as the source filed them. The calls were made as follows: active = hit-call score of the fitted dose curve at least 0.9, where 1 is the maximum; inactive = score below 0.9.
Use one of these outcomes when replying: T for active, F for inactive

Consider the following illustrative entries.
Nc1ccc(Nc2ccccc2)cc1	F
Cc1[nH]cnc1C[C@H]1CCc2c(C)c3ccccc3n2C1=O	T
Cc1ccc(O)cc1	F
CN(C)c1ccc(N=NS(=O)(=O)O)cc1	F
CCCCC(CC)COC(=O)c1ccc(C(=O)OCC(CC)CCCC)cc1 (configuration not stated)	F

Exercise: Entry C1=CCCC=CCCC=CCC1 : call = ?
Solution: F

Exercise: Entry CC(C)CCCCCCCOC(=O)CCCCC(=O)OCCCCCCCC(C)C : call = ?
Solution: F

Exercise: Entry COc1ccc(-n2nc(C(F)F)cc2-c2ccc(S(C)=O)cc2)cc1 (configuration not stated) : call = ?
Solution: F
